- target desc: JAK3 (Homo sapiens)
- Construct: purchased Thermo fisher PV3855
- Sequence (P52333 781-1124 limits assumed): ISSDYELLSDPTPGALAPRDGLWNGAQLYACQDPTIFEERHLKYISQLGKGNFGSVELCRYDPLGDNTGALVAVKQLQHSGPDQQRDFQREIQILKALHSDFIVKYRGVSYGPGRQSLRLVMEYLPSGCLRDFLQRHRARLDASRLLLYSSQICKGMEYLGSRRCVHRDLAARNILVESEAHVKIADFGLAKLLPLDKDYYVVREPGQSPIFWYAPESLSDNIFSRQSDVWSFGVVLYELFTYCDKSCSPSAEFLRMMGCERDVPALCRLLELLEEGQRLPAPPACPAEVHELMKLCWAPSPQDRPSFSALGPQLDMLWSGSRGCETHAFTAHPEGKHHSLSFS
- protocol details: JAK3 biochemical assay (ADP-GLO Kinase Assay)
- test settings: ratio of JAK3 IC50 to HPK1 IC50; first testing facility
measurement kind: JAKs/HPK1 IC50 Ratio, B*

COc1cc2c(cc1Nc1ncc(Cl)c(N3CCc4ccccc43)n1)CNCC2 ... 59
CCc1c[nH]c2ncc(-c3ccc(N)c(P(C)(C)=O)n3)cc12 ... 59

----------
- target desc: JAK3 (Homo sapiens)
- Construct: purchased Thermo fisher PV3855
- protocol details: JAK3 biochemical assay (ADP-GLO Kinase Assay)
- test settings: ratio of JAK3 IC50 to HPK1 IC50; first testing facility
measurement kind: JAKs/HPK1 IC50 Ratio, B*

CCc1c[nH]c2ncc(-c3cc(N)cc(P(C)(C)=O)c3)cc12 [Example 57] ... 22
CCc1c[nH]c2ncc(-c3ccc(-c4ncco4)c(P(C)(C)=O)c3)cc12 [Example 63] ... 19
CCc1c[nH]c2ncc(-c3ccc(CO)c(P(C)(C)=O)c3)cc12 [Example 73] ... 5

A: COc1cc2c(cc1Nc1ncc(Cl)c(N3C[C@@](C)(C(=O)O)c4ccccc43)n1)CN(C)CC2 (single isomer, unassigned) [Example 119]
B: COc1cc2c(cc1Nc1ncc3cc(C#N)n(-c4ccccc4)c3n1)CN(C)CC2 [Example 164]
Response body: label of entry with the larger JAKs/HPK1 IC50 Ratio, B*; valid values A , B . Pick one; state its label.
B
(B: 306, A: 10)

I: COC(=O)C1(C)CN(c2nc(Nc3cc4c(cc3OC)CCN(C)C4)ncc2Cl)c2ccccc21 (stereo not shown) [Example 116]
II: CCc1c[nH]c2ncc(-c3ccc(C)c(P(C)(C)=O)c3)cc12 [Example 50]
Would you kindly point out which of I and II has the smaller JAKs/HPK1 IC50 Ratio, B* figure? Pick one; state its label.
II
